Biological target: methionyl-tRNA synthetase (Trypanosoma brucei brucei)
Experiment: T. brucei MetRS inhibitors, orthogonal readout, late-stage follow-up, orthogonal assay for T. brucei MetRS inhibitor project, biochemical, fluorescence polarization, dose response, round 3 (AID 1053134)
Settings: recombinant T. brucei MetRS
Active and inactive are the calls of the source. The rule behind the calls is not given here.
API: response.call in YES for active, NO for inactive

| SMILES_REPRESENTATION | ANSWER_LABEL |
| --- | --- |
| O=C(Cc1ccc(Nc2nc3ccc(Br)cc3[nH]2)cc1)NCCc1cccs1 | NO |

Consider the additional compound presented here.
Kindly provide the recorded test outcome for the following compound: "CCN(CC)C(=O)C(=O)c1cn(CC(=O)Nc2cc(Oc3ccc(OC)cc3)cc(C(F)(F)F)c2)c2ccccc12"
YES

* * *

Molecular target: methionyl-tRNA synthetase (Trypanosoma brucei brucei)
Test: T. brucei MetRS inhibitors, orthogonal readout, late-stage follow-up, orthogonal assay for T. brucei MetRS inhibitor project, biochemical, fluorescence polarization, dose response, round 3 (AID 1053134)
Settings: recombinant T. brucei MetRS
Calls of active or inactive are those of the source. No rule for the calls is given here.
API: response.call in 1.0 = active, 0.0 = inactive

| SMILES_REPRESENTATION | ANSWER_LABEL |
| --- | --- |
| CCN(CC)C(=O)C(=O)c1cn(CC(=O)Nc2cccc(C(F)(F)F)c2)c2ccccc12 | 1.0 |
| CCN(CC)C(=O)Cc1cn(CC(=O)Nc2cccc(C(F)(F)F)c2)c2ccccc12 | 0.0 |
| CCN(CC)C(=O)C(=O)c1cn(CCNc2cc(Oc3ccccc3)cc(C(F)(F)F)c2)c2ccccc12 | 0.0 |
| CCN(CC)C(=O)C(=O)c1cn(CC(=O)Nc2cc(Oc3ccccc3OC)cc(C(F)(F)F)c2)c2ccccc12 | 1.0 |
| CCN(CC)C(=O)C(=O)c1cn(CC(=O)Nc2cc(Oc3ccccc3F)cc(C(F)(F)F)c2)c2ccccc12 | 1.0 |
| CCN(CC)C(=O)C(=O)c1cn(CC(=O)Nc2cc(Oc3ccccc3)cc(C(F)(F)F)c2)c2ccccc12 | 1.0 |
| CCN(CC)C(=O)C(=O)c1cn(CCNc2cccc(C(F)(F)F)c2)c2ccccc12 | 0.0 |
| Nc1c(Cl)ncnc1Nc1ccc(C(=O)O)cc1 | 1.0 |
| O=C(Cn1cc(C(=O)C(=O)NCc2ccccc2)c2ccccc21)Nc1cc(Oc2ccccc2)cc(C(F)(F)F)c1 | 0.0 |

Consider the additional compound presented here.
Kindly provide the recorded test outcome for the following compound: "CCN(CC)C(=O)C(=O)c1cn(CC(=O)Nc2cc(Oc3ccc(F)cc3)cc(C(F)(F)F)c2)c2ccccc12"
1.0
